Method summary: Pharmacokinetics of AS and DHA in rat plasma after single and multiple intravenous AS injections (automated blood sampler, LC-MS/MS)
Type: in vivo, Sprague-Dawley rats
Experimental conditions: male, Sprague-Dawley, rat, plasma, iv, 20 mg/kg, WRAIR formulation (AS/0.3M PBS Buffer), 20 mg/kg i.v. daily for 3 days, male rats, Period 2, Day 1; read-out: AUCinfininty
Endpoint: AUC (ng·h/mL)
Answer in ng·h/mL, number only, no unit symbol.

IN: Recorded AUC of C[C@H]1[C@@H](O)O[C@@H]2O[C@@]3(C)CC[C@H]4[C@H](C)CC[C@@H]1[C@@]24OO3 [DHA, dihydroartemisinin] , please.
OUT: 1510

----------
Method summary: Pharmacokinetics of AS and DHA in rat plasma after single and multiple intravenous AS injections (automated blood sampler, LC-MS/MS)
Format: in vivo, Sprague-Dawley rats
Experimental conditions: male, Sprague-Dawley, rat, plasma, iv, 20 mg/kg, Chinese formulation (AS/NaHCO3), 20 mg/kg i.v. daily for 3 days, male rats, Period 1, Day 1; read-out: AUCinfininty
Endpoint: AUC (ng·h/mL)
Answer in ng·h/mL, number only, no unit symbol.

IN: Recorded AUC of C[C@H]1[C@H](OC(=O)CCC(=O)O)O[C@@H]2O[C@@]3(C)CC[C@H]4[C@H](C)CC[C@@H]1[C@@]24OO3 [AS, artesunate] , please.
OUT: 872

IN: Recorded AUC of C[C@H]1[C@@H](O)O[C@@H]2O[C@@]3(C)CC[C@H]4[C@H](C)CC[C@@H]1[C@@]24OO3 [DHA, dihydroartemisinin] , please.
OUT: 1570

----------
Method summary: Pharmacokinetics of AS and DHA in rat plasma after single and multiple intravenous AS injections (automated blood sampler, LC-MS/MS)
Type: in vivo, Sprague-Dawley rats
Experimental conditions: male, Sprague-Dawley, rat, plasma, iv, 20 mg/kg, WRAIR formulation (AS/0.3M PBS Buffer), 20 mg/kg i.v. daily for 3 days, male rats, Period 1, Day 3
Endpoint: clearance (mL/min/kg)
Answer in mL/min/kg, number only, no unit symbol.

IN: Recorded clearance of C[C@H]1[C@H](OC(=O)CCC(=O)O)O[C@@H]2O[C@@]3(C)CC[C@H]4[C@H](C)CC[C@@H]1[C@@]24OO3 [AS, artesunate] , please.
OUT: 559

----------
Please provide measured MRT for the entries that follow.
Method summary: Pharmacokinetics of AS and DHA in rat plasma after single and multiple intravenous AS injections (automated blood sampler, LC-MS/MS)
Assay type: in vivo, Sprague-Dawley rats
Experimental conditions: male, Sprague-Dawley, rat, plasma, iv, 20 mg/kg, WRAIR formulation (AS/0.3M PBS Buffer), 20 mg/kg i.v. daily for 3 days, male rats, Period 1, Day 3
Answer in min, number only, no unit symbol.

IN: Recorded MRT of C[C@H]1[C@H](OC(=O)CCC(=O)O)O[C@@H]2O[C@@]3(C)CC[C@H]4[C@H](C)CC[C@@H]1[C@@]24OO3 [AS, artesunate] , please.
OUT: 16.2

IN: Recorded MRT of C[C@H]1[C@@H](O)O[C@@H]2O[C@@]3(C)CC[C@H]4[C@H](C)CC[C@@H]1[C@@]24OO3 [DHA, dihydroartemisinin] , please.
OUT: 20.4

----------
Method summary: Pharmacokinetics of AS and DHA in rat plasma after single and multiple intravenous AS injections (automated blood sampler, LC-MS/MS)
Type: in vivo, Sprague-Dawley rats
Experimental conditions: male, Sprague-Dawley, rat, plasma, iv, 20 mg/kg, WRAIR formulation (AS/0.3M PBS Buffer), 20 mg/kg i.v. daily for 3 days, male rats, Period 2, Day 1; read-out: t1/2 distribution (converted)
Please provide measured half-life for the entries that follow.
Answer in min, number only, no unit symbol.

IN: Recorded half-life of C[C@H]1[C@H](OC(=O)CCC(=O)O)O[C@@H]2O[C@@]3(C)CC[C@H]4[C@H](C)CC[C@@H]1[C@@]24OO3 [AS, artesunate] , please.
OUT: 4.8

IN: Recorded half-life of C[C@H]1[C@@H](O)O[C@@H]2O[C@@]3(C)CC[C@H]4[C@H](C)CC[C@@H]1[C@@]24OO3 [DHA, dihydroartemisinin] , please.
OUT: 8.4

----------
Method summary: Pharmacokinetics of AS and DHA in rat plasma after single and multiple intravenous AS injections (automated blood sampler, LC-MS/MS)
Format: in vivo, Sprague-Dawley rats
Experimental conditions: male, Sprague-Dawley, rat, plasma, iv, 20 mg/kg, Chinese formulation (AS/NaHCO3), 20 mg/kg i.v. daily for 3 days, male rats, Period 1, Day 1; read-out: t1/2 distribution (converted)
Endpoint: half-life (min)
Answer in min, number only, no unit symbol.

IN: Recorded half-life of C[C@H]1[C@@H](O)O[C@@H]2O[C@@]3(C)CC[C@H]4[C@H](C)CC[C@@H]1[C@@]24OO3 [DHA, dihydroartemisinin] , please.
OUT: 7.2

IN: Recorded half-life of C[C@H]1[C@H](OC(=O)CCC(=O)O)O[C@@H]2O[C@@]3(C)CC[C@H]4[C@H](C)CC[C@@H]1[C@@]24OO3 [AS, artesunate] , please.
OUT: 3.6

----------
Method summary: Pharmacokinetics of AS and DHA in rat plasma after single and multiple intravenous AS injections (automated blood sampler, LC-MS/MS)
Assay type: in vivo, Sprague-Dawley rats
Experimental conditions: male, Sprague-Dawley, rat, plasma, iv, 20 mg/kg, Chinese formulation (AS/NaHCO3), 20 mg/kg i.v. daily for 3 days, male rats, Period 1, Day 1; read-out: t1/2 elimination (converted)
Please provide measured half-life for the entries that follow.
Answer in min, number only, no unit symbol.

IN: Recorded half-life of C[C@H]1[C@@H](O)O[C@@H]2O[C@@]3(C)CC[C@H]4[C@H](C)CC[C@@H]1[C@@]24OO3 [DHA, dihydroartemisinin] , please.
OUT: 45

IN: Recorded half-life of C[C@H]1[C@H](OC(=O)CCC(=O)O)O[C@@H]2O[C@@]3(C)CC[C@H]4[C@H](C)CC[C@@H]1[C@@]24OO3 [AS, artesunate] , please.
OUT: 24

----------
Method summary: Pharmacokinetics of AS and DHA in rat plasma after single and multiple intravenous AS injections (automated blood sampler, LC-MS/MS)
Assay type: in vivo, Sprague-Dawley rats
Experimental conditions: male, Sprague-Dawley, rat, plasma, iv, 20 mg/kg, WRAIR formulation (AS/0.3M PBS Buffer), 20 mg/kg i.v. daily for 3 days, male rats, Period 2, Day 3; read-out: t1/2 elimination (converted)
Please provide measured half-life for the entries that follow.
Answer in min, number only, no unit symbol.

IN: Recorded half-life of C[C@H]1[C@H](OC(=O)CCC(=O)O)O[C@@H]2O[C@@]3(C)CC[C@H]4[C@H](C)CC[C@@H]1[C@@]24OO3 [AS, artesunate] , please.
OUT: 32.4

IN: Recorded half-life of C[C@H]1[C@@H](O)O[C@@H]2O[C@@]3(C)CC[C@H]4[C@H](C)CC[C@@H]1[C@@]24OO3 [DHA, dihydroartemisinin] , please.
OUT: 52.8

----------
Method summary: Pharmacokinetics of AS and DHA in rat plasma after single and multiple intravenous AS injections (automated blood sampler, LC-MS/MS)
Assay type: in vivo, Sprague-Dawley rats
Experimental conditions: male, Sprague-Dawley, rat, plasma, iv, 20 mg/kg, WRAIR formulation (AS/0.3M PBS Buffer), 20 mg/kg i.v. daily for 3 days, male rats, Period 1, Day 3
Please provide measured Cmax for the entries that follow.
Answer in ng/mL, number only, no unit symbol.

IN: Recorded Cmax of C[C@H]1[C@@H](O)O[C@@H]2O[C@@]3(C)CC[C@H]4[C@H](C)CC[C@@H]1[C@@]24OO3 [DHA, dihydroartemisinin] , please.
OUT: 2810

IN: Recorded Cmax of C[C@H]1[C@H](OC(=O)CCC(=O)O)O[C@@H]2O[C@@]3(C)CC[C@H]4[C@H](C)CC[C@@H]1[C@@]24OO3 [AS, artesunate] , please.
OUT: 2430

----------
Please provide measured Cmax for the entries that follow.
Method summary: Pharmacokinetics of AS and DHA in rat plasma after single and multiple intravenous AS injections (automated blood sampler, LC-MS/MS);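 further: blood drawn through a jugular vein catheter by an automated sampling system, plasma drug levels measured by LC-MS/MS with positive electrospray ionization against standard curves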
Type: in vivo, Sprague-Dawley rats
Experimental conditions: male, Sprague-Dawley, rat, plasma, iv, 20 mg/kg, Chinese formulation (AS/NaHCO3), 20 mg/kg i.v. daily for 3 days, male rats, Period 1, Day 1
Answer in ng/mL, number only, no unit symbol.

IN: Recorded Cmax of C[C@H]1[C@@H](O)O[C@@H]2O[C@@]3(C)CC[C@H]4[C@H](C)CC[C@@H]1[C@@]24OO3 [DHA, dihydroartemisinin] , please.
OUT: 3360

IN: Recorded Cmax of C[C@H]1[C@H](OC(=O)CCC(=O)O)O[C@@H]2O[C@@]3(C)CC[C@H]4[C@H](C)CC[C@@H]1[C@@]24OO3 [AS, artesunate] , please.
OUT: 4300
